Target: FXIIIa (Homo sapiens)
Sequence (P00488 39-732 limits assumed): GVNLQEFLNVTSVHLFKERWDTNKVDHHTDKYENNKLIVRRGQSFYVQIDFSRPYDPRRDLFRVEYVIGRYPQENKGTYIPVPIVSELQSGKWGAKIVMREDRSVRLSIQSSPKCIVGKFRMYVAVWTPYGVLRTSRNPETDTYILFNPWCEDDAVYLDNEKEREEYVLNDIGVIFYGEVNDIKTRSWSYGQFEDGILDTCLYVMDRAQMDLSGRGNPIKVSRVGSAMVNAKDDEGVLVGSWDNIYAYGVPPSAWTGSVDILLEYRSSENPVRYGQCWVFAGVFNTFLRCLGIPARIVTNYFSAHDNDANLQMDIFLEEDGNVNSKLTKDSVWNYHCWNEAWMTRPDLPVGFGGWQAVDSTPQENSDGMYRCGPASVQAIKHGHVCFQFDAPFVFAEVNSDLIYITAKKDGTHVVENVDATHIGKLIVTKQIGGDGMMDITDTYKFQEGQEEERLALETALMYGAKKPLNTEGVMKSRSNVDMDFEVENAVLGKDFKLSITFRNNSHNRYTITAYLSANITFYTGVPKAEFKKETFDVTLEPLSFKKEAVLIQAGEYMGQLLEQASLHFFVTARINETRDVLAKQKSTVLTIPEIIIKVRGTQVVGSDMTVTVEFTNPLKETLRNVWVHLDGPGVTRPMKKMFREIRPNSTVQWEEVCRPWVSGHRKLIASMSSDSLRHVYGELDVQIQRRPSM
Test: Primary FXIIIa screening assay (cross-linking of biotinylated fibrinogen and immobilized fibronectin)
Format: biochemical
Details: purified compound; read-out: IC50 FXIIIa Primary Screen
ASSAY_ENDPOINT: pIC50
Scale: pIC50 equals -log10([C]), with [C] in mol/L.

Inquiry: Consider the molecule shown here: C[C@@H]1CCC/C=C\C(=O)Cc2cc(O)cc(O)c2C(=O)O1 [ZG-1400, R(-) enantiomer of cis-resorcylide] What is its recorded pIC50?
Reply text: 5.24

Continuing:
Inquiry: Consider the molecule shown here: CC=CCC=CCCC(=O)C1OC1C(N)=O (centres unmarked) [Cerulenin, 2,3-epoxy-4-oxo-7,10-dodecadienamide] What is its recorded pIC50?
Reply text: 4.54

---

target: tissue transglutaminase (tTG) (Cavia cutleri, UniProt P08587); construct: purchased Sigma; test: tTG screening assay; type: biochemical; details: purified compound; read-out: IC50 tTG Screen
Sequence (P08587 whole entry): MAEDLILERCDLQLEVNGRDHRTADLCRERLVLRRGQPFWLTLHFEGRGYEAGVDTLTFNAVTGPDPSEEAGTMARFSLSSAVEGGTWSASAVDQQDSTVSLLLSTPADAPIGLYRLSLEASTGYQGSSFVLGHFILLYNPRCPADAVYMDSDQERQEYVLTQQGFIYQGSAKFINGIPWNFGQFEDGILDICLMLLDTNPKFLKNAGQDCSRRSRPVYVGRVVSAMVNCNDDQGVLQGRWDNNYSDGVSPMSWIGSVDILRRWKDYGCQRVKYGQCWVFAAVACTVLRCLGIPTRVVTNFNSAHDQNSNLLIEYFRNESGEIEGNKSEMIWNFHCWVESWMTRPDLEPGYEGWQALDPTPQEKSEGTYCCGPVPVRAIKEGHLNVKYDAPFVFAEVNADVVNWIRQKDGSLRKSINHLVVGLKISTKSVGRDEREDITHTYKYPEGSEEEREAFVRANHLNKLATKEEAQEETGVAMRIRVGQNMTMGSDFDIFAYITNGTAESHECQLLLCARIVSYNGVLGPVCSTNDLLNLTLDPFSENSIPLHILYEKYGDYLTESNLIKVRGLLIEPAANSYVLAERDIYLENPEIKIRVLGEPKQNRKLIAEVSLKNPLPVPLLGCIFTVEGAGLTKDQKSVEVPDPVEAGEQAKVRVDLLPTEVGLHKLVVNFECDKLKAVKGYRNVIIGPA
ASSAY_ENDPOINT: IC50 (µM)
Write the value in µM as a bare number.

Inquiry: Consider the compound shown here: CC=CCC=CCCC(=O)C1OC1C(N)=O (centres unmarked) [Cerulenin, 2,3-epoxy-4-oxo-7,10-dodecadienamide] What is its recorded IC50?
Reply text: 25

Field: next compound
Inquiry: Consider the compound shown here: C[C@@H]1CCC/C=C\C(=O)Cc2cc(O)cc(O)c2C(=O)O1 [ZG-1400, R(-) enantiomer of cis-resorcylide] What is its recorded IC50?
Reply text: 3.1

---

biological target: tissue transglutaminase (tTG) (Cavia cutleri, UniProt P08587); construct: purchased Sigma; assay: tTG screening assay; assay type: biochemical
ASSAY_ENDPOINT: IC50 (µM)
Write the value in µM as a bare number.

Inquiry: Consider the molecule shown here: NC(=O)CI [Iodoacetamide, iodoacetamide] What is its recorded IC50?
Reply text: 10

Continuing:
Inquiry: Consider the molecule shown here: O=C(O)CI What is its recorded IC50?
Reply text: 32

Recorded values, source patent US5710174A.
